# tested target: AMPK complex 1 (containing alpha1beta1gamma1) (Homo sapiens (Human), UniProt Q13131+Q9Y478)
# Sequence (Q13131 whole entry): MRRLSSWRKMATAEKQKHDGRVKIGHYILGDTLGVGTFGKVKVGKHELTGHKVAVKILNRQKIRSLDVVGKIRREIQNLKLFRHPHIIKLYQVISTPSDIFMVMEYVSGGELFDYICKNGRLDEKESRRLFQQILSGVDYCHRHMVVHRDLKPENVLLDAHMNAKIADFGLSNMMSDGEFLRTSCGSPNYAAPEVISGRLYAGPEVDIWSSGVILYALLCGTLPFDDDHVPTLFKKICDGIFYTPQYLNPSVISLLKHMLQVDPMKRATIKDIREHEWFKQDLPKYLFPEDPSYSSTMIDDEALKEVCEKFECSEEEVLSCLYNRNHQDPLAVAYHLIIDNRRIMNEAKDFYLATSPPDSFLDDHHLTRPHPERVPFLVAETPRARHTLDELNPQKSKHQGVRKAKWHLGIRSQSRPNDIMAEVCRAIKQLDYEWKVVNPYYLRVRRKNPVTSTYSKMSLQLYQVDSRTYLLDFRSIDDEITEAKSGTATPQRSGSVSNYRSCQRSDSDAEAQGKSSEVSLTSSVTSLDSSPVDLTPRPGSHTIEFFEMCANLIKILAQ
# Sequence (Q9Y478 whole entry): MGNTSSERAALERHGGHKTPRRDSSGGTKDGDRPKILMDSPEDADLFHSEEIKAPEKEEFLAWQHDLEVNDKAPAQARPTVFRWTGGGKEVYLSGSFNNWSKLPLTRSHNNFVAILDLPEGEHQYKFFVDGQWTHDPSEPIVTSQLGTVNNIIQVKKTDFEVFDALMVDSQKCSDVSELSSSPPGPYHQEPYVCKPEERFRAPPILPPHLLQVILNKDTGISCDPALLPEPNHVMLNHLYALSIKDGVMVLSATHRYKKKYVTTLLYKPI
# Sequence (P54619 whole entry partner): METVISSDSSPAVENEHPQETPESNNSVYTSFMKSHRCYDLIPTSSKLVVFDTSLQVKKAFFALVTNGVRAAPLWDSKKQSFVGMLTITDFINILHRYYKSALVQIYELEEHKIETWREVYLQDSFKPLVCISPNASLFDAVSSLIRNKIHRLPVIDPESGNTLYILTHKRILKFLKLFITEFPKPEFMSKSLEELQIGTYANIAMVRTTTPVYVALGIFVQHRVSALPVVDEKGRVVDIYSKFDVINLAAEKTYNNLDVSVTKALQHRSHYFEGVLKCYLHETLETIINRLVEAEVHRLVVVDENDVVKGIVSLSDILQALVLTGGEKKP
# experiment notes: in vitro AMPK activation assay (ADP-Glo Kinase Assay)
# test context: AMPK alpha1beta1gamma1, ATP 30 μM, peptide 1 μM, 60 min, room temperature
Let's look at some compounds and their measured pEC50.
The meaning of pEC50 here: minus log10 of the concentration in molar units.

Past entries and their recorded results:
given smiles: CC(C)NC(=O)O[C@H]1CC[C@@H](c2ccc(-c3nc4[nH]c(O[C@@H]5CO[C@H]6[C@@H]5OC[C@H]6O)nc4cc3Cl)cc2)CC1
pEC50: 7.46
--
given smiles: O=C(OC1CCN(c2ccc(-c3nc4[nH]c(O[C@@H]5CO[C@H]6[C@@H]5OC[C@H]6O)nc4cc3Cl)cc2)CC1)N1CCOCC1
pEC50: 6.88
--
given smiles: CC(C)NC(=O)O[C@H]1CC[C@H](c2ccc(-c3nc4[nH]c(O[C@@H]5CO[C@H]6[C@@H]5OC[C@H]6O)nc4cc3Cl)cc2)CC1
pEC50: 6.47
--
given smiles: CN(C)C(=O)OC1CCN(c2ccc(-c3nc4[nH]c(O[C@@H]5CO[C@H]6[C@@H]5OC[C@H]6O)nc4cc3Cl)cc2)CC1
pEC50: 7.49
--
given smiles: O=C(O[C@H]1CC[C@H](c2ccc(-c3nc4[nH]c(O[C@@H]5CO[C@H]6[C@@H]5OC[C@H]6O)nc4cc3Cl)cc2)CC1)N1CCOCC1
pEC50: 8.22

Now consider the entry below.
IN: Input "CCNC(=O)O[C@H]1CC[C@H](c2ccc(-c3nc4[nH]c(O[C@@H]5CO[C@H]6[C@@H]5OC[C@H]6O)nc4cc3Cl)cc2)CC1" , output reported pEC50.
OUT: 6.33

----------
# experiment notes: Metabolic stability: metabolic degradation with pooled human liver microsomes
# Assay type: in vitro ADME
# test context: pooled human liver microsomes 1 mg/ml, 37° C., test compound 1 μM, NADPH 1 mM
Let's look at some molecules and their measured t1/2 INVITRO.
Just the number in h, nothing appended.

IN: Input "CC(C)NC(=O)O[C@H]1CC[C@@H](c2ccc(-c3nc4[nH]c(O[C@@H]5CO[C@H]6[C@@H]5OC[C@H]6O)nc4cc3Cl)cc2)CC1" , output reported t1/2 INVITRO.
OUT: 1.83

IN: Input "O=C(N[C@H]1CC[C@@H](c2ccc(-c3nc4[nH]c(O[C@@H]5CO[C@H]6[C@@H]5OC[C@H]6O)nc4cc3Cl)cc2)CC1)OC1CCOCC1" , output reported t1/2 INVITRO.
OUT: 1.13

IN: Input "O=C(N[C@H]1CC[C@@H](c2ccc(-c3nc4[nH]c(O[C@@H]5CO[C@H]6[C@@H]5OC[C@H]6O)nc4cc3Cl)cc2)CC1)OC1CCCC1" , output reported t1/2 INVITRO.
OUT: 0.317

----------
# experiment notes: Metabolic stability: metabolic degradation with pooled human liver microsomes
# Format: in vitro ADME
# test context: pooled human liver microsomes 1 mg/ml, 37° C., test compound 1 μM, NADPH 1 mM
Let's look at some compounds and their measured t1/2 INVITRO.

Past entries and their recorded results:
compound: CCNC(=O)O[C@H]1CC[C@@H](c2ccc(-c3nc4[nH]c(O[C@@H]5CO[C@H]6[C@@H]5OC[C@H]6O)nc4cc3Cl)cc2)CC1 [Example 10]
measured attribute: t1/2 INVITRO
observed measurement: >2.17 h
--
compound: CN(C)C(=O)OC1CCN(c2ccc(-c3nc4[nH]c(O[C@@H]5CO[C@H]6[C@@H]5OC[C@H]6O)nc4cc3Cl)cc2)CC1 [Example 2]
measured attribute: t1/2 INVITRO
observed measurement: 1.85 h
--
compound: O=C(O[C@H]1CC[C@H](c2ccc(-c3nc4[nH]c(O[C@@H]5CO[C@H]6[C@@H]5OC[C@H]6O)nc4cc3Cl)cc2)CC1)N1CCCC1 [Example 9]
measured attribute: t1/2 INVITRO
observed measurement: >2.17 h

IN: Input CCOC(=O)NC1CCN(c2ccc(-c3nc4[nH]c(O[C@@H]5CO[C@H]6[C@@H]5OC[C@H]6O)nc4cc3Cl)cc2)CC1 [Example 1] , output reported t1/2 INVITRO.
OUT: >2.17 h
